B1: HDAC6 (parent)
chain: YVHHQALLDVKNIAHQNKFGEDMP

variants of: B1; assay: protein stability index of a GFP-peptide fusion (GPS, HEK-293T) (PSI 1-6); higher = more stable; details: c terminus: a fixed tail appended;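 also: lentivirally expressed fusions sorted by FACS into six bins by GFP to DsRed ratio, PSI derived from sequencing read proportions per bin multiplied by bin number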
Observation type: protein stability index
# print the numeric value only

Problem: Suppose we examine the variant "D9Y" ; what protein stability index value has been reported?
Solution: 2.35

Problem: Suppose we examine the variant "A14D" ; what protein stability index value has been reported?
Solution: 2

Problem: Suppose we examine the variant "E21R" ; what protein stability index value has been reported?
Solution: 1.47

Problem: Suppose we examine the variant "N12T" ; what protein stability index value has been reported?
Solution: 2.09

Problem: Suppose we examine the variant "I13M" ; what protein stability index value has been reported?
Solution: 2.47

Problem: Suppose we examine the variant "H15A" ; what protein stability index value has been reported?
Solution: 2.57

More entries:
Problem: Suppose we examine the variant "Y1L" ; what protein stability index value has been reported?
Solution: 3.3

Problem: Suppose we examine the variant "N12C" ; what protein stability index value has been reported?
Solution: 1.42

Problem: Suppose we examine the variant "E21K" ; what protein stability index value has been reported?
Solution: 1.57

Problem: Suppose we examine the variant "P24Y" ; what protein stability index value has been reported?
Solution: 1.51

Problem: Suppose we examine the variant "K11T" ; what protein stability index value has been reported?
Solution: 2.25

Problem: Suppose we examine the variant "H4M" ; what protein stability index value has been reported?
Solution: 1.83

Problem: Suppose we examine the variant "N12W" ; what protein stability index value has been reported?
Solution: 2.64

Problem: Suppose we examine the variant "H4F" ; what protein stability index value has been reported?
Solution: 2.98

Problem: Suppose we examine the variant "N12G" ; what protein stability index value has been reported?
Solution: 2.71

Problem: Suppose we examine the variant "V10Q" ; what protein stability index value has been reported?
Solution: 2.43

Problem: Suppose we examine the variant "Q16T" ; what protein stability index value has been reported?
Solution: 1.91

Problem: Suppose we examine the variant "K11Q" ; what protein stability index value has been reported?
Solution: 1.4

Problem: Suppose we examine the variant "N12Y" ; what protein stability index value has been reported?
Solution: 3.4

Problem: Suppose we examine the variant "Y1W" ; what protein stability index value has been reported?
Solution: 2.98

Problem: Suppose we examine the variant "D9P" ; what protein stability index value has been reported?
Solution: 4.3

Problem: Suppose we examine the variant "L7M" ; what protein stability index value has been reported?
Solution: 2.32

Problem: Suppose we examine the variant "V2T" ; what protein stability index value has been reported?
Solution: 2.95

Problem: Suppose we examine the variant "L8M" ; what protein stability index value has been reported?
Solution: 1.95

Problem: Suppose we examine the variant "K11F" ; what protein stability index value has been reported?
Solution: 2.13
